These measurements were taken from patent US10189777B2.

Molecular target: Gal4-RORγ-LBD (Homo sapiens, UniProt P51449)
Sequence (P51449 269-508 limits assumed): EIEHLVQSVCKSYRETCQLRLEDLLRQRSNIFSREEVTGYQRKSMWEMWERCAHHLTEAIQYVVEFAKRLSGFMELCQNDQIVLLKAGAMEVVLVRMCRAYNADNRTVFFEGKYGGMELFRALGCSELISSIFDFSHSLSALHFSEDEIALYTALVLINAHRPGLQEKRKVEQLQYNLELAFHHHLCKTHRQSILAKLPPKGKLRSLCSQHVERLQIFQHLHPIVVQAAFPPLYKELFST
Experiment: Gal4-RORγ Luciferase Reporter Assay in HEK-293T Cells
Details: HEK-293 cells, with 2 μM ursolic acid, incubated overnight, luciferase readout
REPORTED_METRIC: EC50

CCN(c1cccc(OC2CCc3cccc(Cl)c32)c1)S(=O)(=O)c1cccc(C(F)(F)F)c1 (stereo not drawn) ... 5 to 10 µM
CCN(c1cccc(OCc2c(Cl)cccc2Cl)c1)S(=O)(=O)c1cccc(C(F)(F)F)c1 ... 0.5 to 5 µM
CCN(c1cccc(OCc2cc(Cl)ccc2Cl)c1)S(=O)(=O)c1cccc(C(F)(F)F)c1 ... 5 to 10 µM
CCN(c1cccc(OCc2c(F)cccc2OC)c1)S(=O)(=O)c1cccc(C(F)(F)F)c1 ... > 10 µM
CCN(c1cccc(OCCc2c(Cl)cccc2Cl)c1)S(=O)(=O)c1cccc(C(F)(F)F)c1 ... 0.5 to 5 µM
CCC(c1ccc(OCc2c(F)cccc2Cl)cc1)S(=O)(=O)c1cccc(C(F)(F)F)c1 (stereo not drawn) ... < 0.5 µM
CCN(c1cccc(NCc2ccccc2Cl)c1)S(=O)(=O)c1cccc(C(F)(F)F)c1 ... 0.5 to 5 µM
CCOc1nn(CC)cc1S(=O)(=O)N(CC)c1cccc(OC2CCc3ccccc32)c1 (stereo not drawn) ... > 10 µM
CCN(c1cccc(OCCc2c(F)cccc2Cl)c1)S(=O)(=O)c1cccc(C(F)(F)F)c1 ... > 10 µM

###

Biological target: HIS-tagged RORγ-LBD protein (Homo sapiens)
Construct: the lysate was used
Test: RORγ-Ligand Binding Domain (LBD) TR-FRET Assay
Conditions: with 2 μM RORγ antagonist ursolic acid; biotinylated SRC1 LXXLL peptide; ratio 665 nm/615 nm
pEC50: −log10 of the molar value.
REPORTED_METRIC: pEC50

CCC(c1ccc(OCc2c(F)cccc2Cl)cc1)S(=O)(=O)c1cccc(C(F)(F)F)c1 (stereo not drawn) ... > 6.30
CCN(c1cccc(OCc2c(F)cccc2C(F)(F)F)c1)S(=O)(=O)c1cccc(C(F)(F)F)c1 ... > 6.30
CCN(c1cccc(OCc2cc(Cl)ccc2Cl)c1)S(=O)(=O)c1cccc(C(F)(F)F)c1 ... > 6.30
CCN(c1cccc(OCCc2c(F)cccc2Cl)c1)S(=O)(=O)c1cccc(C(F)(F)F)c1 ... 5.30 to 6.30
CCN(c1cccc(Cn2c(=O)oc3ccccc32)c1)S(=O)(=O)c1cccc(C(F)(F)F)c1 ... < 5.00
CCN(c1cccc(COc2c(F)cccc2Cl)c1)S(=O)(=O)c1cccc(C(F)(F)F)c1 ... > 6.30
CCOc1nn(CC)cc1S(=O)(=O)N(CC)c1cccc(OCc2c(F)cccc2Cl)c1 ... 5.30 to 6.30
CCN(c1cccc(OCc2ccc(Cl)cc2Cl)c1)S(=O)(=O)c1cccc(C(F)(F)F)c1 ... < 5.00
CCN(c1cccc(OC2Cc3ccccc3C2)c1)S(=O)(=O)c1cccc(C(F)(F)F)c1 ... 5.30 to 6.30

###

Target: HIS-tagged RORγ-LBD protein (Homo sapiens, UniProt P51449)
Construct: the lysate was used
Assay: RORγ-Ligand Binding Domain (LBD) TR-FRET Assay
Conditions: with 2 μM RORγ antagonist ursolic acid; biotinylated SRC1 LXXLL peptide; ratio 665 nm/615 nm
Entries and their EC50
REPORTED_METRIC: EC50

CCN(Cc1ccccc1Cl)c1cccc(N(CC)S(=O)(=O)c2cccc(C(F)(F)F)c2)c1 ... > 10000 nM
CCN(c1cccc(CNC2CCCCC2)c1)S(=O)(=O)c1cccc(C(F)(F)F)c1 ... > 10000 nM
CCN(c1cccc(CNCc2ccccc2Cl)c1)S(=O)(=O)c1cccc(C(F)(F)F)c1 ... > 10000 nM
CCN(c1cccc(C(C)Oc2c(F)cccc2Cl)c1)S(=O)(=O)c1cccc(C(F)(F)F)c1 (stereo not drawn) ... < 500 nM
CCN(c1cccc(OCc2cccc(C(F)(F)F)c2Cl)c1)S(=O)(=O)c1cccc(C(F)(F)F)c1 ... > 10000 nM
CCN(c1cccc(COc2ccccc2Cl)c1)S(=O)(=O)c1cccc(C(F)(F)F)c1 ... 500 to 5000 nM
CCC(c1ccc(OCc2c(F)cccc2Cl)cc1)S(=O)(=O)c1ccc(Cl)cc1 (stereo not drawn) ... < 500 nM
CCN(c1cccc(OC2CCc3cccc(F)c32)c1)S(=O)(=O)c1cccc(C(F)(F)F)c1 (stereo not drawn) ... < 500 nM
CCN(c1cccc(CN2CCc3ccccc32)c1)S(=O)(=O)c1cccc(C(F)(F)F)c1 ... 500 to 5000 nM
CCN(c1cccc(OCc2ccccc2F)c1)S(=O)(=O)c1cccc(C(F)(F)F)c1 ... < 500 nM
CCN(c1cccc(OCc2cc(C(F)(F)F)ccc2Cl)c1)S(=O)(=O)c1cccc(C(F)(F)F)c1 ... > 10000 nM
CCC(c1ccc(OCc2ccccc2)cc1)S(=O)(=O)c1cccc(C(F)(F)F)c1 (stereo not drawn) ... 500 to 5000 nM
CCN(c1cccc(COC2(C)CCCCC2)c1)S(=O)(=O)c1cccc(C(F)(F)F)c1 ... < 500 nM
CCN(c1cccc(OCc2ccccc2)c1)S(=O)(=O)c1cccc(C(F)(F)F)c1 ... 500 to 5000 nM
CCC(c1cccc(OCc2c(F)cccc2Cl)c1)S(=O)(=O)c1ccc(Cl)cc1 (stereo not drawn) ... < 500 nM
CCN(c1cccc(OCc2c(F)cccc2OC)c1)S(=O)(=O)c1cccc(C(F)(F)F)c1 ... < 500 nM
CCN(c1cccc(OCc2ccccc2Cl)c1)S(=O)(=O)c1cccc(C(F)(F)F)c1 ... 500 to 5000 nM
CCN(c1cccc(OC2CCc3ccccc32)c1)S(=O)(=O)c1cccc(C(F)(F)F)c1 (stereo not drawn) ... < 500 nM
CCN(c1cccc(OC2CCc3cccc(Cl)c32)c1)S(=O)(=O)c1cccc(C(F)(F)F)c1 (stereo not drawn) ... < 500 nM
CCN(c1cccc(OCC2CCCCC2)c1)S(=O)(=O)c1cccc(C(F)(F)F)c1 ... < 500 nM
CCN(c1cccc(OCCc2ccccc2)c1)S(=O)(=O)c1cccc(C(F)(F)F)c1 ... > 10000 nM
CCN(c1cccc(OCc2c(F)cccc2Cl)c1)S(=O)(=O)c1cccc(C(F)(F)F)c1 ... < 500 nM
CCN(Cc1cccc(N(CC)S(=O)(=O)c2cccc(C(F)(F)F)c2)c1)c1ccccc1Cl ... 500 to 5000 nM
CCN(c1cccc(COC2CCCCC2C(F)(F)F)c1)S(=O)(=O)c1cccc(C(F)(F)F)c1 (stereo not drawn) ... 500 to 5000 nM
CCN(c1cccc(COC2CCCCC2)c1)S(=O)(=O)c1cccc(C(F)(F)F)c1 ... 500 to 5000 nM
CCOc1nn(CC)cc1S(=O)(=O)N(CC)c1cccc(OC2CCc3ccccc32)c1 (stereo not drawn) ... 500 to 5000 nM
CCOc1nn(CC)cc1S(=O)(=O)N(CC)c1cccc(OCc2ccccc2)c1 ... > 10000 nM
CCN(c1cccc(NCc2ccccc2Cl)c1)S(=O)(=O)c1cccc(C(F)(F)F)c1 ... < 500 nM
CCC(c1ccc(OCc2ccccc2)cc1)S(=O)(=O)c1ccc(Cl)cc1 (stereo not drawn) ... 500 to 5000 nM
CCN(c1cccc(Cn2ncc3ccccc32)c1)S(=O)(=O)c1cccc(C(F)(F)F)c1 ... > 10000 nM

###

Target: HIS-tagged RORγ-LBD protein (Homo sapiens)
Construct: made in house; host or cells: SF9 cells, baculovirus expression system; the lysate was used
Sequence (P51449 269-508 limits assumed): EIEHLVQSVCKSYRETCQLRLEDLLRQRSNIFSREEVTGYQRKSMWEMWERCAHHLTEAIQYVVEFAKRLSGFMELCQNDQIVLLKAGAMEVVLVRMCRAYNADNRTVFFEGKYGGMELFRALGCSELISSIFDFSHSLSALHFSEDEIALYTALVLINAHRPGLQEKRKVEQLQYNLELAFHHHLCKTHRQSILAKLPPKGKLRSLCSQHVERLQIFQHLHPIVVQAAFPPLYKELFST
Assay: RORγ-Ligand Binding Domain (LBD) TR-FRET Assay
Type: biochemical
Settings: with 2 μM RORγ antagonist ursolic acid; biotinylated SRC1 LXXLL peptide; ratio 665 nm/615 nm
REPORTED_METRIC: EC50

CCN(c1cccc(OC(C)c2c(F)cccc2Cl)c1)S(=O)(=O)c1cccc(C(F)(F)F)c1 (stereo not drawn) ... > 10 µM
CCN(c1cccc(OCc2c(Cl)cccc2Cl)c1)S(=O)(=O)c1cccc(C(F)(F)F)c1 ... < 0.5 µM
CCC(c1cccc(OCc2ccccc2)c1)S(=O)(=O)c1ccc(Cl)cc1 (stereo not drawn) ... > 10 µM
CCN(c1cccc(CNc2ccccc2Cl)c1)S(=O)(=O)c1cccc(C(F)(F)F)c1 ... > 10 µM
CCC(c1cccc(OCc2ccccc2)c1)S(=O)(=O)c1cccc(C(F)(F)F)c1 (stereo not drawn) ... 5 to 10 µM
CCN(c1cccc(C(C)Oc2ccccc2Cl)c1)S(=O)(=O)c1cccc(C(F)(F)F)c1 (stereo not drawn) ... > 10 µM
CCN(c1cccc(OCCc2c(Cl)cccc2Cl)c1)S(=O)(=O)c1cccc(C(F)(F)F)c1 ... 0.5 to 5 µM
CCN(c1cccc(OCc2cccc(Cl)c2Cl)c1)S(=O)(=O)c1cccc(C(F)(F)F)c1 ... > 10 µM
CCC(c1cccc(OCc2c(F)cccc2Cl)c1)S(=O)(=O)c1cccc(C(F)(F)F)c1 (stereo not drawn) ... < 0.5 µM
